Each entry below lists one item and its recorded IC50 value.
SUBJECT_OF_TEST: T1, Fc-tagged human TSLP antigen (huTSLP-Fc) (human, biotin-labeled in the blocking assays)
T1 construct: whole entry named; also called recombinant human TSLP-Fc
METHOD_DESCRIPTION: competition ELISA: blocks TSLP binding to TSLP receptor
MEASUREMENT_TYPE: IC50 (nM)

[[record]]
binder = "hu199-24 (antibody, human IgG1, kappa, V domains shown, IgG1-YTE, kappa) VH: EVQLVQSGAEVKKPGASVKVSCKASGYTFTTYWMHWVKQAPGQGLEWIGMIDPSDSETTLIQKFKDKATLTVDKSTSTAYMELSSLRSEDTAVYYCARTLDGYYDYWGQGTTVTVSS VL: DIQMTQSPSSLSASVGDRVTITCRASENIYSYLAWYQQKPGKSPQLLVYFAKTLAEGVPSRFSGSVSGTQFTLTISSLQPEDFATYYCQHHYGTPWTFGGGTKVEIKR"
measurement_type = "IC50"
value_measured = 0.496

[[record]]
binder = "hu199-13 (antibody, human IgG1, kappa, V domains shown, IgG1-YTE, kappa) VH: EVQLVQSGAEVKKPGASVKVSCKASGYTFTTYWMHWVRQAPGQGLEWIGMIDPSDSETTLIQKFKDRATLTVDKSTSTAYMELSSLRSEDTAVYYCARTLDGYYDYWGQGTTVTVSS VL: DIQMTQSPSSLSASVGDRVTITCRASENIYSYLAWYQQKPGKAPKLLIYFAKTLAEGVPSRFSGSGSGTDFTLTISSLQPEDFATYYCQHHYGTPWTFGGGTKVEIKR"
measurement_type = "IC50"
value_measured = 0.239

[[record]]
binder = "hu199-18 (antibody, human IgG1, kappa, V domains shown, IgG1-YTE, kappa) VH: EVQLVQSGAEVKKPGASVKVSCKASGYTFTTYWMHWVRQAPGQGLEWIGMIDPSDSETTLIQKFKDRATLTVDKSTSTAYMELSSLRSEDTAVYYCARTLDGYYDYWGQGTTVTVSS VL: DIQMTQSPSSLSASVGDRVTITCRASENIYSYLAWYQQKPGKSPQLLVYFAKTLAEGVPSRFSGSVSGTQFTLTISSLQPEDFATYYCQHHYGTPWTFGGGTKVEIKR"
measurement_type = "IC50"
value_measured = 0.481


Values compiled from patent US20240016931A1.
